Tested on: LOX IMVI melanoma
TEST PROTOCOL: NCI tumour cell line growth inhibition, 48 h
Recorded TGI, one value per entry.

As a guide, the following entries are already answered.
COc1ccc(/C(=C2\O[C@@H]([C@H]3COC(C)(C)O3)[C@H]3OC(C)(C)O[C@@H]23)c2cc(OC)c(OC)c(OC)c2)cc1O	> 100 µM
COC1C(CN[N+](=O)CC2OC3OC(C)(C)OC3C2OC)OC2OC(C)(C)OC21 (stereo not given)	> 100 µM
COc1ccccc1C1C(C(=O)Nc2ccccc2)=C(C)NC(C)=C1C(=O)Nc1ccccc1	> 100 µM
O=NN(Cc1ccc(Cl)cc1)C(C(=O)O)c1ccccc1 (stereo not given)	> 100 µM

// next item, TGI requested
Endpoint output: TGI of Cc1ccc2c(c1)C(=O)/C(=C/c1ncc([N+](=O)[O-])n1C)O2 . Value?
1.23 µM

* * *

Tested on: KM20L2 colon
TEST PROTOCOL: NCI tumour cell line growth inhibition, 48 h
This section presents compounds with their documented TGI values.
The response must be a number in µM with no trailing unit.

Worked set:
Clc1ccc(C2N3CCCCC3[C@@H]3c4[nH]c5ccccc5c4CCN23)cc1 (stereo not given in full)	96.5
N=C1CSC2=NC3=C(CCC/C3=C\c3ccccc3)C(c3ccccc3)N12 (stereo not given)	16.8
CCCCCCCCCCCC(=O)CC(=O)c1c(O)cccc1O	43.8

Please look up its TGI: CC12CC[C@@H](C(C)(C)O)C1[C@@H](O)CC1(C)C2CCC2[C@@]3(C)CC[C@H](O)C(C)(C)C3C(O)C[C@]21C (stereo not given in full)
28.3

* * *

System: SF-295 CNS
TEST PROTOCOL: NCI tumour cell line growth inhibition, 48 h; in the data active means GI50 below about 0.43 µM; inactive means the rest
Hello, when you answer, please use one of the following outcomes: active, inactive

Here are 5 compounds together with their reported answers.
CCc1c(Oc2ccc(C(C)=O)cc2)c2ccccc2[nH]c1=O	inactive
Cc1nn(CN2CCN(C)CC2)c(=S)n1/N=C/c1cccc2ccccc12	inactive
CCCCC(=O)OCC1OC(n2cnc3c(=S)nc[nH]c32)C(OC(=O)CCCC)C1OC(=O)CCCC (configuration not stated)	inactive
O=C1c2c(c3c4ccccc4n(CCCCCCBr)c3c3[nH]c4ccccc4c23)C(=O)N1O	inactive
Cn1cc(-c2cnc3ccc(NC(=O)Nc4ccc(F)c(Br)c4)cc3n2)cn1	inactive

Short answer needed: outcome of this test for CC(C)CC(=O)[O-].CC(C)CC(=O)[O-].N.N.N.N.[Co+3].[O-][Cl+3]([O-])([O-])[O-] ?
inactive

How was CSc1ccc(C2=NN(C(C)=O)C(c3cc(C)cs3)C2)cc1 (configuration not stated) classified in this test?
inactive

* * *

System: MOLT-4 leukemia
TEST PROTOCOL: NCI tumour cell line growth inhibition, 48 h
EXPERIMENTAL ENDPOINT: GI50

Past entries and their recorded results:
Cc1ccc2c(c1)C(=O)/C(=C/c1ncc([N+](=O)[O-])n1C)O2	0.5 µM
COc1ccc(C2=NN(C(=O)c3cc(OC)c(OC)c(OC)c3)C(c3ccc(C#N)cc3)C2)cc1OC (stereo not given)	4.27 µM
Cc1cc(I)cc(CNCCCN2CCSCC2)c1O	15.1 µM
O=c1oc2ccc(F)cc2c(=O)n1-c1ccc(F)cc1F	3.46 µM
O=C(c1ccco1)c1nc2ccc(C(F)(F)F)cc2[n+]([O-])c1C(F)(F)F	> 100 µM

Which GI50 is listed for O=C1/C(=C/c2ccc(Br)cc2)C=C(c2ccccc2)N1CCc1ccccc1 ?
18.4 µM

Which GI50 is listed for COc1ccc(/C(=C2\O[C@@H]([C@H]3COC(C)(C)O3)[C@H]3OC(C)(C)O[C@@H]23)c2cc(OC)c(OC)c(OC)c2)cc1O ?
6.93 µM

For O=C(O)CCCCC(CCSCc1ccccc1)SCc1ccccc1 (stereo not given) , what is its reported GI50?
47 µM

Fill in: GI50 of C[C@]12CC[C@H](O)CC1=CC[C@@H]1[C@@H]2CC[C@]2(C)C(c3cccnc3)=CC[C@@H]12 is ___
> 38.5 µM

Entry Nc1ccn(C2O[C@H](CO)[C@@H](O)[C@@H]2O)c(=O)n1 (stereo not given in full) has what GI50?
16.1 µM
